# experimental_system: h-GABAA α5β2γ1 (Homo sapiens, UniProt P31644+Q8N1C3)
# assay_protocol: Radioligand binding assay, [3H]RO7239181 competition, HEK293F membranes
readout_label: Ki (nM)
Give bare numbers, in nM.

Known Ki results, listed for orientation:
[
  {
    "structure_notation": "Fc1cccc(F)c1C1=NCc2nnc(-c3cccnn3)n2-c2ccc(Br)c(Br)c21",
    "readout_label": "Ki",
    "value_reported": 0.9
  },
  {
    "structure_notation": "Fc1ccccc1C1=NCc2nnc(-c3cccnn3)n2-c2ccc(Cl)c(Cl)c21",
    "readout_label": "Ki",
    "value_reported": 1.4
  },
  {
    "structure_notation": "OCc1nnc2n1-c1ccc(Br)c(Cl)c1C(c1c(F)cccc1F)=NC2",
    "readout_label": "Ki",
    "value_reported": 1.5
  },
  {
    "structure_notation": "Cc1nnc2n1-c1ccc(C(C)(F)F)c(Cl)c1C(c1c(F)cccc1F)=NC2",
    "readout_label": "Ki",
    "value_reported": 4.3
  },
  {
    "structure_notation": "Cc1ccc2c(c1Cl)C(c1c(F)cccc1F)=NCc1n[nH]c(=O)n1-2",
    "readout_label": "Ki",
    "value_reported": 1.8
  }
]

Would you mind giving Ki for every molecule in the list below?
1. Fc1cccnc1C1=NCc2nnc(-c3ccncn3)n2-c2ccc(C(F)(F)F)c(Cl)c21
2. Cc1nnc2n1-c1ccc(C(F)(F)F)c(Cl)c1C(c1c(F)cccc1F)=NC2
3. COc1nnc2n1-c1ccc(Cl)c(Cl)c1C(c1c(F)cccc1F)=NC2
4. Cn1cc(-c2nnc3n2-c2ccc(Cl)c(Cl)c2C(c2ncccc2F)=NC3)cn1
5. Cc1ccc2c(c1Cl)C(c1c(F)cccc1F)=NCc1nnc(C)n1-2

[7.1, 1.9, 1, 3.6, 2.9]
